Origin of the recorded values: patent US11840686B2

- Test system: human PKK mRNA
- ASSAY DETAILS: Dose-dependent antisense inhibition of human PKK in HepaRG cells, 0.11-3.00 uM (Example 6)
- Assay type: cell-based
- COND: electroporation, 1.00 μM, approx. 16 hours, relative to untreated control cells
Strand notation (5' to 3'): a small letter for the sugar, then the base; units joined by * are phosphorothioate-linked, units joined directly phosphodiester-linked; [ ] holds rarer units or linkages, { } end groups; capitals alone tell only the bases. e = 2'-O-(2-methoxyethyl) (MOE); k = constrained ethyl (cEt); [5mC] = 5-methylcytosine; d = 2'-deoxy (DNA)
// map percent inhibition of PKK mRNA, 1.00 μM onto a label; ranges low (below 70%), medium (70% to below 80%), high (80% or more)

Enquiry: Exercise: read the entry 548217 (e[5mC]*eT*kG*dT*dG*d[5mC]*dA*dT*dA*dG*dA*d[5mC]*d[5mC]*k[5mC]*k[5mC]*eA; antisense) [compound 548217] and state which class it falls under.
Return: low

Enquiry: Exercise: read the entry 548024 (eG*e[5mC]*kT*dG*dT*d[5mC]*dA*dG*d[5mC]*dT*dT*d[5mC]*dA*k[5mC]*k[5mC]*eT; antisense) [compound 548024] and state which class it falls under.
Return: high

Enquiry: Exercise: read the entry 548046 (eT*eA*kT*d[5mC]*dA*dT*dG*dA*dT*dT*d[5mC]*d[5mC]*d[5mC]*kT*kT*e[5mC]; antisense) [compound 548046] and state which class it falls under.
Return: low

Enquiry: Exercise: read the entry 548055 (eG*eT*kA*dA*dT*dT*d[5mC]*dA*dA*dA*dG*dG*dA*kG*k[5mC]*e[5mC]; antisense) [compound 548055] and state which class it falls under.
Return: low

Enquiry: Exercise: read the entry 547942 (eG*eG*kT*dG*dT*dG*d[5mC]*d[5mC]*dA*d[5mC]*dT*dT*dT*k[5mC]*kA*eG; antisense) [compound 547942] and state which class it falls under.
Return: high

Enquiry: Exercise: read the entry 548668 (antisense eG*eG*kG*dA*dG*d[5mC]*dT*dT*dT*d[5mC]*dA*dT*dG*kG*k[5mC]*eT) [compound 548668] and state which class it falls under.
Return: low

Enquiry: Exercise: read the entry 548069 (e[5mC]*e[5mC]*kA*dA*d[5mC]*dA*dG*dT*dT*dG*dG*dT*dA*kT*kA*eA; antisense) [compound 548069] and state which class it falls under.
Return: low

Enquiry: Exercise: read the entry 547943 (eT*eG*kG*dT*dG*dT*dG*d[5mC]*d[5mC]*dA*d[5mC]*dT*dT*kT*k[5mC]*eA; antisense) [compound 547943] and state which class it falls under.
Return: high

Enquiry: Exercise: read the entry 547808 (e[5mC]*eA*kT*d[5mC]*dT*dG*dG*d[5mC]*dA*dG*dT*dA*dT*kT*kG*eG; antisense) [compound 547808] and state which class it falls under.
Return: low

Enquiry: Exercise: read the entry 548010 (eA*eG*kT*dG*dT*dT*dA*d[5mC]*dA*d[5mC]*dA*dA*dT*k[5mC]*kT*e[5mC]; antisense) [compound 548010] and state which class it falls under.
Return: low

Enquiry: Exercise: read the entry 548547 (antisense eG*eT*kG*d[5mC]*dG*dA*dT*dT*dA*dA*dG*d[5mC]*d[5mC]*k[5mC]*k[5mC]*eA) [compound 548547] and state which class it falls under.
Return: medium

Enquiry: Exercise: read the entry 548424 (antisense e[5mC]*eA*kG*dT*dA*dT*d[5mC]*dA*d[5mC]*dT*dG*dT*d[5mC]*k[5mC]*kT*eA) [compound 548424] and state which class it falls under.
Return: high

Enquiry: Exercise: read the entry 547861 (antisense eA*e[5mC]*kT*d[5mC]*d[5mC]*dT*d[5mC]*dT*d[5mC]*dA*dT*dA*dT*k[5mC]*kA*eA) [compound 547861] and state which class it falls under.
Return: medium

Enquiry: Exercise: read the entry 547859 (antisense e[5mC]*e[5mC]*kT*d[5mC]*dT*d[5mC]*dA*dT*dA*dT*d[5mC]*dA*dA*k[5mC]*kT*e[5mC]) [compound 547859] and state which class it falls under.
Return: high

Enquiry: Exercise: read the entry 547998 (antisense e[5mC]*eT*kT*dG*dT*dG*dT*d[5mC]*d[5mC]*d[5mC]*dA*dT*dA*k[5mC]*kG*e[5mC]) [compound 547998] and state which class it falls under.
Return: high

Enquiry: Exercise: read the entry 548047 (eG*eA*kT*dA*dT*d[5mC]*dA*dT*dG*dA*dT*dT*d[5mC]*k[5mC]*k[5mC]*eT; antisense) [compound 548047] and state which class it falls under.
Return: medium
